meta.source: PubChem BioAssay AID1159580

# MEASUREMENT_NOTES: chemical genetic growth profiling, strain panel (AID 1159580);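 further: tested at 20 µM; growth read once vehicle control cultures reached saturation at 30 °C; 1 = growth at the plate median or of vehicle wells; lower values mean less growth of the strain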
# PROTOCOL_CONDITIONS: S. cerevisiae deletion strains, growth OD, locus YPL241C, strain CIN2, stronger effect = lower value
The whole screen tested about 5,500 compounds, of which about 2,000 (36%) were called active. Inconclusive results (about 18%) are left out. Some of the results follow.
QUANTITY_MEASURED: normalized growth
The response must contain the number and no unit.

Worked cases, normalized growth given:
O=C1NC2(CCN(Cc3ccccc3)CC2)Oc2ccccc21
1.1
COc1ccc(NC(=O)c2ccc(-c3ccc(-c4noc(C)n4)cc3C)cc2)cc1N1CCN(C)CC1
0.994
COc1ccc(C(=O)c2sc(Nc3ccccc3)nc2-c2ccccc2)cc1
0.898
Cc1nc(-c2ccc(-c3ccc(C(=O)N4CCc5cc6c(cc54)C4(CCN(C)CC4)CO6)cc3)c(C)c2)no1
0.907
COc1ccc(-c2cc(=O)c3c(OC)cc(OC)cc3o2)cc1
0.996

Recorded result, "COc1ccc2oc(-c3ccccc3)c(OC)c(=O)c2c1" , normalized growth: 0.959

Recorded result, "O/N=C(/CNC(c1ccccc1)(c1ccccc1)c1ccccc1)c1ccccc1" , normalized growth: 0.964

----------
Property: normalized growth; scope: individual compounds
# MEASUREMENT_NOTES: chemical genetic growth profiling, strain panel (AID 1159580);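 further: tested at 20 µM; growth read once vehicle control cultures reached saturation at 30 °C; 1 = growth at the plate median or of vehicle wells; lower values mean less growth of the strain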
# PROTOCOL_CONDITIONS: S. cerevisiae deletion strains, growth OD, locus YER110C, stronger effect = lower value
Hit rate of the full screen: of about 5,500 compounds, about 2,000 (36%) were called active. Roughly 18% stayed inconclusive and do not appear here. The list shows a part of the results.
The response must contain the number and no unit.

CC(=O)Oc1ccc2c(c1)CCC1C2CC[C@]2(C)C(=O)CCC12 (stereo not given in full)
1.01

Recorded result, "NCCCNCCSP(=O)(O)O" , normalized growth: 0.989

Recorded result, C[C@]12CCC3c4ccc(O)cc4CCC3C1CCC2=O (stereo not given in full) , normalized growth: 0.985

Recorded result, CN=C(N)NCCCC(N)C(=O)O (stereo not given) , normalized growth: 0.997

Recorded result, "Fc1ccc([C@@H]2CCNC[C@H]2COc2ccc3c(c2)OCO3)cc1" , normalized growth: 1.02

Recorded result, C=NC(C(=O)NC1C(=O)N2C1SC(C)(C)C2C(=O)O)c1ccccc1 (stereo not given) , normalized growth: 1.01

----------
Property: normalized growth; scope: individual molecules
# MEASUREMENT_NOTES: chemical genetic growth profiling, strain panel (AID 1159580);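 further: tested at 20 µM; growth read once vehicle control cultures reached saturation at 30 °C; 1 = growth at the plate median or of vehicle wells; lower values mean less growth of the strain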
# PROTOCOL_CONDITIONS: S. cerevisiae deletion strains, growth OD, locus YDL101C, strain DUN1, stronger effect = lower value
About 2,000 (36%) of roughly 5,500 compounds were called active. About 18% were inconclusive and are not listed. The list shows a part of the results.
The response must contain the number and no unit.

Worked cases, normalized growth given:
COc1ccc2oc(-c3ccccc3)c(OC)c(=O)c2c1
0.888
FC(F)(F)c1cc(Cl)c2nsnc2c1
1.01
NC(=O)N[C@@H]1O[C@H](CO)[C@@H](O)[C@H](O)[C@H]1O
0.994
OCc1nccn1Cc1ccc(Cl)cc1
1.03
O=NN(CCCl)C(=O)NCCCl
0.964
NC(N)=NCCCCN=C(N)N
0.953

Recorded result, "COc1ccc2oc3ccccc3c(=O)c2c1" , normalized growth: 0.76

Recorded result, "CN(C)c1ccc(/C=C/c2ccc3ccccc3[n+]2C)cc1" , normalized growth: 0.988

Recorded result, CC(=O)OC1CC(O)C(C)(C)C2CC(=O)C3(C)C(CCC4(C)C(c5ccoc5)OC(=O)C5OC543)C12C (configuration not stated) , normalized growth: 0.992

Recorded result, CCCCCCCCCCCCCC(=O)OC1C(C)C2(O)C(C=C(CO)CC3(O)C(=O)C(C)=CC32)C2C(C)(C)C12OC(C)=O (configuration not stated) , normalized growth: 1.01

Recorded result, "Cc1nn(Cc2ccccc2Cl)c(=N)s1" , normalized growth: 0.991

Recorded result, "O=S(=O)(Nc1cc(Cl)c(Cl)cc1Cl)c1cc(C(F)(F)F)cc(C(F)(F)F)c1" , normalized growth: 0.972
